Target: T1, Sec8-His (section 8 (Sec8), an antigenic region of CSP-1, tagged with a polyhistidine (His) tag)
T1 construct: also called Sec8-His antigen
T1 chain: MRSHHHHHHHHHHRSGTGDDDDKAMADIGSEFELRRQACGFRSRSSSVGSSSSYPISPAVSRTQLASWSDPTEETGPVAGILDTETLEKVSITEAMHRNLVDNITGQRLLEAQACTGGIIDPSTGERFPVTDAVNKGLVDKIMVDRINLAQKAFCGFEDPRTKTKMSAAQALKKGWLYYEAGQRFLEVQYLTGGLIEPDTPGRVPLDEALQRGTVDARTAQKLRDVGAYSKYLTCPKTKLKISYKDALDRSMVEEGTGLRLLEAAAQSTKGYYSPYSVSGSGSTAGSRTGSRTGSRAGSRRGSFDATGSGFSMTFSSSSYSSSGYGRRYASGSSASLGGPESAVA
Assay: BLI (Octet), single shot: antibody on anti-human IgG tips, 24 nM Sec8-His
readout.name: binding result

[
  {
    "binder": "humanized anti-CSP-1 antibody, Antibody Number 44 (Table 1) (antibody, human IgG1, V domains shown, also called Antibody 44) VH: EVQLVESGGGLVKPGGSLRLSCAASGFTFSRYGMNWVRQAPGKGLEWVSSISIGGTYTYYADSVKGRFTISRDNAKNSLYLQMNSLRAEDTAVYYCARRGYGNYSYYGMDYWGQGTLVTVSS VL: DIVMTQSPLSLPVTPGEPASISCRSSKSLLHSNGITYLYWYLQKPGQSPQLLIYQMSNLASGVPDRFSGSGSGTDFTLKISRVEAEDVGVYYCAQNLELPLTFGQGTKLEIK",
    "value.reported": "binds"
  },
  {
    "binder": "humanized anti-CSP-1 antibody, Antibody Number 7 (Table 1) (antibody, human IgG1, V domains shown, also called Antibody 7) VH: QIQLVQSGPEVKKPGASVKISCKASGYTFTDYSMHWVKQAPGQGLKWMGWINTETGEPTYADDFKGRFTFTLDTSTSTAYLEISSLRSEDTATYFCAPGGFAYWGQGTLVTVSS VL: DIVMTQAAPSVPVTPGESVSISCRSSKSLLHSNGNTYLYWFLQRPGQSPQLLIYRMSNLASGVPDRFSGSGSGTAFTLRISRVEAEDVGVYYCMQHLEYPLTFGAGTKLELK",
    "value.reported": "binds"
  },
  {
    "binder": "humanized anti-CSP-1 antibody, Antibody Number 13 (Table 1) (antibody, human IgG1, V domains shown, also called Antibody 13) VH: QIQLVQSGPEVKKPGASVKISCKASGYTFTDYSMHWVRQAPGQGLEWMGWINTETGEPTYAQKFQGRFTFTLDTSTSTAYLEISSLRSEDTAVYFCAPGGFAYWGQGTLVTVSS VL: DIVMTQSAPSVPVTPGQSVSISCRSSKSLLHSNGNTYLYWFLQKPGQSPQLLIYRMSNRASGVPDRFSGSGSGTDFTLKISRVEAEDVGVYYCMQHLEYPLTFGQGTKLEIK",
    "value.reported": "binds"
  }
]
